Source listed as patent US11306071B2.

molecular target: HEK-293 cells expressing human recombinant adenosine A2A receptor (Homo sapiens (Human), UniProt P29274); test: cAMP assay (Assay 2), A2A receptor
Sequence (P29274 whole entry): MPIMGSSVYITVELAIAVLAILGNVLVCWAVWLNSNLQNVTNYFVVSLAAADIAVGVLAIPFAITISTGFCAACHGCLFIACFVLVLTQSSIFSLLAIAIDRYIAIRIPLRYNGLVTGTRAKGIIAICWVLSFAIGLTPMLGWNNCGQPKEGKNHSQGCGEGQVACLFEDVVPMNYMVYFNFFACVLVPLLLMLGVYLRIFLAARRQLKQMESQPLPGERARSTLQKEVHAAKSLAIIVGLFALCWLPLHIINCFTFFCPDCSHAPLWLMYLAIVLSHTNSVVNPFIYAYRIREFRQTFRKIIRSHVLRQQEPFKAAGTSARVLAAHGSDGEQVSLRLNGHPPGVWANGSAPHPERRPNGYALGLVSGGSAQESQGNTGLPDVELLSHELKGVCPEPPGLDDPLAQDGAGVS
// IC50 lookup, one value per entry
ASSAY METRIC: IC50 (nM)

COMPOUND: C[C@@H](NC(=O)c1nc(-c2ccc3ncccc3c2)c(-c2ccn(C)n2)nc1N)c1ccccn1 [Compound No. 110]
ASSAY METRIC: IC50
UNIT DESCRIPTOR: nM
OBS VALUE: 75
//
COMPOUND: N#Cc1cc(-c2nc(N)cnc2-c2cc(Cl)c3ncccc3c2)ccc1F [Compound No. 2-13]
ASSAY METRIC: IC50
UNIT DESCRIPTOR: nM
OBS VALUE: 527
//
COMPOUND: C[C@@H](NC(=O)c1nc(-c2ccc3ncccc3c2)c(-c2ccccc2)nc1N)c1ccccn1 [compound 76]
ASSAY METRIC: IC50
UNIT DESCRIPTOR: nM
OBS VALUE: 24
//
COMPOUND: C[C@@H](NC(=O)c1nc(-c2cc(Cl)c3ncccc3c2)c(-c2ccn(C)n2)nc1N)c1ccccn1 [Compound No. 100]
ASSAY METRIC: IC50
UNIT DESCRIPTOR: nM
OBS VALUE: 28
//
COMPOUND: C[C@H](NC(=O)c1nc(-c2ccc3ncccc3c2)c(-c2ccccc2)nc1N)c1ccccn1 [compound 75]
ASSAY METRIC: IC50
UNIT DESCRIPTOR: nM
OBS VALUE: 25
//
COMPOUND: CC(NC(=O)c1nc(-c2ccc3ncccc3c2)c(-c2ccccc2)nc1N)c1ccccn1 (centres unmarked) [compound 73]
ASSAY METRIC: IC50
UNIT DESCRIPTOR: nM
OBS VALUE: 53
//
COMPOUND: N#Cc1cccc(CNC(=O)c2nc(-c3cc(Cl)c4ncccc4c3)c(-c3ccc(F)cc3)nc2N)n1 [Compound No. 105]
ASSAY METRIC: IC50
UNIT DESCRIPTOR: nM
OBS VALUE: 48
//
COMPOUND: Nc1nc(-c2ccccc2)c(-c2ccc3ncccc3c2)nc1C(=O)NCCC1CCOCC1 [compound 89]
ASSAY METRIC: IC50
UNIT DESCRIPTOR: nM
OBS VALUE: 58
